Tested on: breast CSC cell line (Celprogen Cat#36102-29P-T25)
Experiment: resazurin cell viability assay on breast CSC cell line
Format: cell-based
Details: 12.5 μg/mL, FIG. 14
ATTRIBUTE MEASURED: cell death, breast CSC cell line

>>> assay_value("CCCCCCCCCCCCCC(=O)NCc1ccc(O)c(O)c1")
"25-35%"
>>> assay_value("CCCCCCCCNC(=O)NCc1ccc(O)c(O)c1")
"about 15%"
>>> assay_value("CCCCCCCCC(=O)NCc1ccc(O)c(O)c1")
"about 15%"
>>> assay_value("CCCCCCCCCCCC(=O)NCc1ccc(O)c(O)c1")
"~55%"
>>> assay_value("CCCCCCCCCC(=O)NCc1ccc(O)c(O)c1")
"25-35%"
>>> assay_value("CCCCCCNC(=O)NCc1ccc(O)c(O)c1")
"about 15%"
>>> assay_value("CCCCCCCCCCC(=O)NCc1ccc(O)c(O)c1")
"25-35%"

Values compiled from patent US8703822B2.
